Each recorded value in this set is attributed to the OligoGym collection.

# key: entry, value: normalised inhibition (eCFP-eYFP dual reporter)
system-under-test: Mmp7 (rat)
experiment-description: reporter assay of Huesken 2005; note: test concentration or dose not given here
setup-conditions: siRNA
Oligonucleotides are given in HELM: sugar(base)linkage, 5' to 3'; d 2'-deoxyribose, r ribose, m 2'-O-methylribose, p phosphate. ss, as = sense and antisense strand

A selection of reference data follows.
[
  {
    "substance": "RNA1{r(G)p.r(C)p.r(C)p.r(A)p.r(C)p.r(U)p.r(G)p.r(U)p.r(C)p.r(C)p.r(C)p.r(A)p.r(G)p.r(G)p.r(A)p.r(A)p.r(G)p.r(C)p.r(C)p.d(T)p.d(T)}|RNA2{r(G)p.r(G)p.r(C)p.r(U)p.r(U)p.r(C)p.r(C)p.r(U)p.r(G)p.r(G)p.r(G)p.r(A)p.r(C)p.r(A)p.r(G)p.r(U)p.r(G)p.r(G)p.r(C)p.d(A)p.d(G)}$$$RNA1{StrandType:ss}|RNA2{StrandType:as}$",
    "result": "66%"
  },
  {
    "substance": "RNA1{r(C)p.r(G)p.r(A)p.r(C)p.r(U)p.r(C)p.r(U)p.r(A)p.r(A)p.r(A)p.r(A)p.r(C)p.r(A)p.r(A)p.r(A)p.r(G)p.r(A)p.r(A)p.r(G)p.d(T)p.d(T)}|RNA2{r(C)p.r(U)p.r(U)p.r(C)p.r(U)p.r(U)p.r(U)p.r(G)p.r(U)p.r(U)p.r(U)p.r(U)p.r(A)p.r(G)p.r(A)p.r(G)p.r(U)p.r(C)p.r(G)p.d(T)p.d(G)}$$$RNA1{StrandType:ss}|RNA2{StrandType:as}$",
    "result": "113%"
  },
  {
    "substance": "RNA1{r(C)p.r(C)p.r(C)p.r(U)p.r(A)p.r(C)p.r(C)p.r(U)p.r(A)p.r(U)p.r(C)p.r(A)p.r(A)p.r(G)p.r(G)p.r(A)p.r(G)p.r(A)p.r(U)p.d(T)p.d(T)}|RNA2{r(A)p.r(U)p.r(C)p.r(U)p.r(C)p.r(C)p.r(U)p.r(U)p.r(G)p.r(A)p.r(U)p.r(A)p.r(G)p.r(G)p.r(U)p.r(A)p.r(G)p.r(G)p.r(G)p.d(T)p.d(A)}$$$RNA1{StrandType:ss}|RNA2{StrandType:as}$",
    "result": "102%"
  },
  {
    "substance": "RNA1{r(A)p.r(A)p.r(G)p.r(U)p.r(G)p.r(A)p.r(C)p.r(C)p.r(G)p.r(C)p.r(A)p.r(C)p.r(U)p.r(U)p.r(C)p.r(A)p.r(G)p.r(U)p.r(G)p.d(T)p.d(T)}|RNA2{r(C)p.r(A)p.r(C)p.r(U)p.r(G)p.r(A)p.r(A)p.r(G)p.r(U)p.r(G)p.r(C)p.r(G)p.r(G)p.r(U)p.r(C)p.r(A)p.r(C)p.r(U)p.r(U)p.d(C)p.d(T)}$$$RNA1{StrandType:ss}|RNA2{StrandType:as}$",
    "result": "79.7%"
  }
]

// next item, normalised inhibition (eCFP-eYFP dual reporter) requested
Can you look up normalised inhibition (eCFP-eYFP dual reporter) on Mmp7 (rat) for RNA1{r(C)p.r(U)p.r(U)p.r(C)p.r(C)p.r(C)p.r(A)p.r(U)p.r(U)p.r(U)p.r(G)p.r(A)p.r(U)p.r(G)p.r(G)p.r(G)p.r(C)p.r(C)p.r(A)p.d(T)p.d(T)}|RNA2{r(U)p.r(G)p.r(G)p.r(C)p.r(C)p.r(C)p.r(A)p.r(U)p.r(C)p.r(A)p.r(A)p.r(A)p.r(U)p.r(G)p.r(G)p.r(G)p.r(A)p.r(A)p.r(G)p.d(T)p.d(T)}$$$RNA1{StrandType:ss}|RNA2{StrandType:as}$ ?
85%

====

# key: entry, value: normalised inhibition (eCFP-eYFP dual reporter)
system-under-test: UBE2K
experiment-description: reporter assay of Huesken 2005
setup-conditions: siRNA
Oligonucleotides are given in HELM: sugar(base)linkage, 5' to 3'; d 2'-deoxyribose, r ribose, m 2'-O-methylribose, p phosphate. ss, as = sense and antisense strand
Give the value in % but do not write % after it.

A selection of reference data follows.
[
  {
    "substance": "RNA1{r(A)p.r(G)p.r(A)p.r(A)p.r(A)p.r(C)p.r(A)p.r(U)p.r(A)p.r(C)p.r(C)p.r(C)p.r(A)p.r(U)p.r(U)p.r(U)p.r(A)p.r(A)p.r(U)p.d(T)p.d(T)}|RNA2{r(A)p.r(U)p.r(U)p.r(A)p.r(A)p.r(A)p.r(U)p.r(G)p.r(G)p.r(G)p.r(U)p.r(A)p.r(U)p.r(G)p.r(U)p.r(U)p.r(U)p.r(C)p.r(U)p.d(G)p.d(G)}$$$RNA1{StrandType:ss}|RNA2{StrandType:as}$",
    "system-under-test": "UBE2K",
    "number": 72.3
  },
  {
    "substance": "RNA1{r(A)p.r(A)p.r(G)p.r(G)p.r(A)p.r(G)p.r(G)p.r(A)p.r(A)p.r(G)p.r(A)p.r(U)p.r(A)p.r(C)p.r(C)p.r(A)p.r(A)p.r(C)p.r(U)p.d(T)p.d(T)}|RNA2{r(A)p.r(G)p.r(U)p.r(U)p.r(G)p.r(G)p.r(U)p.r(A)p.r(U)p.r(C)p.r(U)p.r(U)p.r(C)p.r(C)p.r(U)p.r(C)p.r(C)p.r(U)p.r(U)p.d(C)p.d(A)}$$$RNA1{StrandType:ss}|RNA2{StrandType:as}$",
    "system-under-test": "UBE2K",
    "number": 68.1
  }
]

Can you look up normalised inhibition (eCFP-eYFP dual reporter) on UBE2K for RNA1{r(C)p.r(C)p.r(G)p.r(C)p.r(A)p.r(C)p.r(G)p.r(G)p.r(U)p.r(A)p.r(U)p.r(U)p.r(A)p.r(U)p.r(U)p.r(G)p.r(U)p.r(C)p.r(A)p.d(T)p.d(T)}|RNA2{r(U)p.r(G)p.r(A)p.r(C)p.r(A)p.r(A)p.r(U)p.r(A)p.r(A)p.r(U)p.r(A)p.r(C)p.r(C)p.r(G)p.r(U)p.r(G)p.r(C)p.r(G)p.r(G)p.d(A)p.d(G)}$$$RNA1{StrandType:ss}|RNA2{StrandType:as}$ ?
63.3

Can you look up normalised inhibition (eCFP-eYFP dual reporter) on UBE2K for RNA1{r(U)p.r(U)p.r(U)p.r(G)p.r(U)p.r(U)p.r(U)p.r(G)p.r(G)p.r(A)p.r(U)p.r(A)p.r(U)p.r(C)p.r(C)p.r(U)p.r(G)p.r(A)p.r(A)p.d(T)p.d(T)}|RNA2{r(U)p.r(U)p.r(C)p.r(A)p.r(G)p.r(G)p.r(A)p.r(U)p.r(A)p.r(U)p.r(C)p.r(C)p.r(A)p.r(A)p.r(A)p.r(C)p.r(A)p.r(A)p.r(A)p.d(T)p.d(A)}$$$RNA1{StrandType:ss}|RNA2{StrandType:as}$ ?
78.9

Can you look up normalised inhibition (eCFP-eYFP dual reporter) on UBE2K for RNA1{r(U)p.r(G)p.r(A)p.r(A)p.r(G)p.r(G)p.r(A)p.r(G)p.r(G)p.r(A)p.r(A)p.r(G)p.r(A)p.r(U)p.r(A)p.r(C)p.r(C)p.r(A)p.r(A)p.d(T)p.d(T)}|RNA2{r(U)p.r(U)p.r(G)p.r(G)p.r(U)p.r(A)p.r(U)p.r(C)p.r(U)p.r(U)p.r(C)p.r(C)p.r(U)p.r(C)p.r(C)p.r(U)p.r(U)p.r(C)p.r(A)p.d(T)p.d(A)}$$$RNA1{StrandType:ss}|RNA2{StrandType:as}$ ?
82.7

Can you look up normalised inhibition (eCFP-eYFP dual reporter) on UBE2K for RNA1{r(C)p.r(C)p.r(G)p.r(G)p.r(U)p.r(U)p.r(U)p.r(A)p.r(U)p.r(C)p.r(A)p.r(C)p.r(U)p.r(A)p.r(A)p.r(A)p.r(A)p.r(U)p.r(A)p.d(T)p.d(T)}|RNA2{r(U)p.r(A)p.r(U)p.r(U)p.r(U)p.r(U)p.r(A)p.r(G)p.r(U)p.r(G)p.r(A)p.r(U)p.r(A)p.r(A)p.r(A)p.r(C)p.r(C)p.r(G)p.r(G)p.d(A)p.d(C)}$$$RNA1{StrandType:ss}|RNA2{StrandType:as}$ ?
89.7

Can you look up normalised inhibition (eCFP-eYFP dual reporter) on UBE2K for RNA1{r(A)p.r(A)p.r(G)p.r(U)p.r(A)p.r(G)p.r(A)p.r(U)p.r(C)p.r(U)p.r(U)p.r(G)p.r(U)p.r(A)p.r(G)p.r(A)p.r(U)p.r(G)p.r(A)p.d(T)p.d(T)}|RNA2{r(U)p.r(C)p.r(A)p.r(U)p.r(C)p.r(U)p.r(A)p.r(C)p.r(A)p.r(A)p.r(G)p.r(A)p.r(U)p.r(C)p.r(U)p.r(A)p.r(C)p.r(U)p.r(U)p.d(T)p.d(A)}$$$RNA1{StrandType:ss}|RNA2{StrandType:as}$ ?
88.9
